These entries and their values trace back to patent US20250345284A1.

assay: Z-average diameter and polydispersity index by dynamic light scattering (Zetasizer Nano); format: physicochemical; conditions: LNPs with 12.5%, 25% and 50% substitution of the named hydroxycholesterol

{"compound": "CC(C)[C@@H](O)CC[C@@H](C)[C@H]1CC[C@H]2[C@@H]3CC=C4C[C@@H](O)CC[C@]4(C)[C@H]3CC[C@]12C [B2, 24 (S)-hydroxycholesterol]", "PDI (in words)": "more polydisperse"}
{"compound": "C[C@H](CCCC(C)(C)O)[C@H]1CC[C@H]2[C@@H]3CC=C4C[C@@H](O)CC[C@]4(C)[C@H]3CC[C@]12C [B3, 25-hydroxycholesterol]", "PDI (in words)": "more polydisperse"}
